Please go through the items and note down their IC50.
Biological target: PD-1/PD-L1 protein/protein interaction (Homo sapiens, UniProt Q9NZQ7)
Construct: Recombinant human PD-L1 protein (19-238) with a His-tag at the C-terminus; purchased AcroBiosystems PD1-H5229 (PD-L1); PD1-H5257 (PD-1)
Sequence (Q9NZQ7 19-238): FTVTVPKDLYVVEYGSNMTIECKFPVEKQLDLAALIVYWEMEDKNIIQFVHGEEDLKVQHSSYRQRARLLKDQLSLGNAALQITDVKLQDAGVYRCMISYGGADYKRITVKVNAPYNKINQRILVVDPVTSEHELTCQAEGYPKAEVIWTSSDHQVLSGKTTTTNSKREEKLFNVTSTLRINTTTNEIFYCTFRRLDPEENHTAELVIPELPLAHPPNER
Test: PD-1/PD-L1 homogenous time-resolved fluorescence (HTRF) binding assay
Settings: HTRF, recombinant human PD-1 (Fc tag) / PD-L1 (His-tag), 25° C., PBS pH 7.4; class symbols; read-out: IC50

Give its IC50 value. Item: COc1cc2oc(-c3cccc(-c4cccc(OCCCN5CCOCC5)c4)c3C)nc2cc1CNCCO [Compound 1] < 25 nM

Give its IC50 value. Item: COc1cc2oc(-c3cccc(-c4cccc(OCCCN5CCOCC5)c4)c3C)nc2cc1CN(C)CC(=O)O [Compound 19] 25 to 150 nM

Give its IC50 value. Item: CCOc1cc2oc(-c3cccc(-c4cccc5c4CCN5C(=O)CCN4CCOCC4)c3C)nc2cc1CN1CCCCC1C(=O)O (stereo not drawn) [Compound 39] < 25 nM

----------
Please go through the items and note down their IC50.
Target: PD-1/PD-L1 protein/protein interaction (Homo sapiens, UniProt Q9NZQ7)
Construct: Recombinant human PD-L1 protein (19-238) with a His-tag at the C-terminus; purchased AcroBiosystems PD1-H5229 (PD-L1); PD1-H5257 (PD-1)
Assay: PD-1/PD-L1 homogenous time-resolved fluorescence (HTRF) binding assay

Give its IC50 value. Item: COc1cc2nc(-c3cccc(-c4cccc(OCCCN5CCOCC5)c4F)c3C)n(C)c2cc1N1CCCCC1C(=O)O (stereo not shown) [Compound 12] < 0.025 µM

Give its IC50 value. Item: COc1cc2c(cc1CN1CCCCC1C(=O)O)nc(-c1cccc(-c3cccc(OCCCN4CCOCC4)c3F)c1C)n2C (stereo not shown) [Compound 13] < 0.025 µM

Give its IC50 value. Item: COc1cc2oc(-c3cccc(-c4cccc(OCCCN5CCOCC5)c4)c3C)nc2cc1CN1CCC(F)(F)CC1C(=O)O (stereo not shown) [Compound 16] 0.025 to 0.15 µM

Give its IC50 value. Item: COc1cc2nc(-c3cccc(-c4cccc(OCCCN5CCOCC5)c4)c3C)sc2cc1CN1CCCC1C(=O)O (stereo not shown) [Compound 26] < 0.025 µM

----------
Molecular target: PD-1/PD-L1 protein/protein interaction (Homo sapiens)
Construct: Recombinant human PD-L1 protein (19-238) with a His-tag at the C-terminus; purchased AcroBiosystems PD1-H5229 (PD-L1); PD1-H5257 (PD-1)
Assay: PD-1/PD-L1 homogenous time-resolved fluorescence (HTRF) binding assay
Settings: HTRF, recombinant human PD-1 (Fc tag) / PD-L1 (His-tag), 25° C., PBS pH 7.4; class symbols; read-out: IC50
Protocol: Resolved Fluorescence (HTRF) Binding Assay The assays were conducted in a standard black 384-well polystyrene plate with a final volume of 20 μL. Inhibitors were first serially diluted in DMSO and then added to the plate wells before the addition of other reaction components. The final concentration of DMSO in the assay was 1%. The assays were carried out at 25° C. in the PBS buffer (pH 7.4) with 0.05% Tween-20 and 0.1% BSA. […]
Please go through the items and note down their IC50.

API: value(readout=IC50, system=PD-1/PD-L1 protein/protein interaction (Homo sapiens)) for record COc1cc2oc(-c3cccc(-c4ccc(Cl)c(OCCCN5CCOCC5)c4)c3C)nc2cc1CN1CCCCC1C(=O)O (stereo not shown) 25 to 150 nM

API: value(readout=IC50, system=PD-1/PD-L1 protein/protein interaction (Homo sapiens)) for record COc1cc2oc(-c3cccc(-c4cccc5c4CCN5C(=O)CN4CCOCC4)c3C)nc2cc1CN1CCCCC1C(=O)O (stereo not shown) > 150 nM

API: value(readout=IC50, system=PD-1/PD-L1 protein/protein interaction (Homo sapiens)) for record "Cc1c(OCCCN2CCOCC2)cccc1-c1cccc(-c2nc3cc(CNCC(=O)O)c(N(C)C)cc3s2)c1C" 25 to 150 nM

API: value(readout=IC50, system=PD-1/PD-L1 protein/protein interaction (Homo sapiens)) for record "COc1cc2oc(-c3cccc(-c4cccc(OCCCN5CCOCC5)c4)c3C)nc2cc1CN(C)C" 25 to 150 nM
